# credit: patent CN114907476A

- Experimental System: T1, SPH-B011-A-Antigen-his蛋白 (人TIGIT) (human, UniProt Q495A1 22-141, limits assumed)
- T1 construct: Analyte of the Biacore assay; also called 抗原(人TIGIT); not shown: his tag
- T1 sequence (looked up): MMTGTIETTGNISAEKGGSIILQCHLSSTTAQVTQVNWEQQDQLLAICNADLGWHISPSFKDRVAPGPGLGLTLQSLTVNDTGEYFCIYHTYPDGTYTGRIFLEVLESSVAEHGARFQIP
- Test Protocol: Biacore, antibody captured on anti-Fc CM5 chip, human TIGIT-his 100nM as analyte, 25℃
Observed Property: Kd (nM)

| Binder | Observed Property | Reading Unit | Measured Number |
| --- | --- | --- | --- |
| 人源化抗TIGIT抗体A4 (antibody, human IgG1, kappa, V domains shown, Humanized) VH: QLQLVQSGAEVKKPGASVKVSCKASGYSFTDYNMNWVRQAPGQSLEWIGVINPNHGTISYNQKFKGRVTMTRDQSTSTAYMELNSLRSEDTAVYYCANNWDVWYFDVWGQGTLVTVSS VL: DIQMTQSPSSLSASVGDRVTITCRPSENIYSYLAWYQQKPGNSPKLLVYNAKALAEGVPSRFSGSGSGTQFTLTISSLQPEDFATYYCQHHFGAPWTFGGGTKVEIKR | Kd | nM | 4.85 |
| 人源化抗TIGIT抗体A2 (antibody, human IgG1, kappa, V domains shown, Humanized) VH: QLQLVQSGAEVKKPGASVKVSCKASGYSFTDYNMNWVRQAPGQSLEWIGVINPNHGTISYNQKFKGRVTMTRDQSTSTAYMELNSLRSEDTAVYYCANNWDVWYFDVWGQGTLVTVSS VL: DIQMTQSPSSLSASVGDRVTITCRPSENIYSYLAWYQQKPGKAPKLLVYNAKALAEGVPSRFSGSGSGTDFTLTISSLQPEDFATYYCQHHFGAPWTFGQGTKVEIKR | Kd | nM | 4.3 |
| 人源化抗TIGIT抗体A3 (antibody, human IgG1, kappa, V domains shown, Humanized) VH: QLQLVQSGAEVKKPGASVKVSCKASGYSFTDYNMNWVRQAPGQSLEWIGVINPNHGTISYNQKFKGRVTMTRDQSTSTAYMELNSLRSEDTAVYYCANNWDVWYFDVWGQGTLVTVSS VL: DIQMTQSPSSLSASVGDRVTITCRPSENIYSYLAWYQQKPGNAPKLLVYNAKALAEGVPSRFSGSGSGTQFTLTISSLQPEDFATYYCQHHFGAPWTFGQGTKVEIKR | Kd | nM | 4.66 |
| 人源化抗TIGIT抗体A1 (antibody, human IgG1, kappa, V domains shown, Humanized) VH: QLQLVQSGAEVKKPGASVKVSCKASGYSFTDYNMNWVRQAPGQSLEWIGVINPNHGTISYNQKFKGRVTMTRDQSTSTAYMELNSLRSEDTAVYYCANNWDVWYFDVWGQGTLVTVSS VL: DIQMTQSPSSLSASVGDRVTITCRPSENIYSYLAWYQQKPGKAPKLLIYNAKALAEGVPSRFSGSGSGTDFTLTISSLQPEDFATYYCQHHFGAPWTFGQGTKVEIKR | Kd | nM | 4.62 |
